Reference source: patent US20250011410A1

target: T1, canine NGF tagged at the C-terminus with the Flag tag (canine, UniProt A0A8I3PYI3 122-241); experiment: SPR, Biacore T200; antibody captured on anti-feline CM5 chip, NGF as analyte; 1:1 model
T1 construct: mature; 'mature' rests on the words 'processed form'; also called feline NGF (processed form identical)
T1 sequence (A0A8I3PYI3 entry or part of it): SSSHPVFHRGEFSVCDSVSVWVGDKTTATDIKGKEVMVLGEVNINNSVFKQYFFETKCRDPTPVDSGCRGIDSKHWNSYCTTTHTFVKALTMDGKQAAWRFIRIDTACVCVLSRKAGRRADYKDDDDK
observable: koff (s⁻¹)
API: value field is a number in s⁻¹; no unit string.

Sample records with koff:
SC-184_110-Arg (antibody, V domains shown, SC-184_110 containing the G55R mutation in VH; feline antibody captured on an anti-feline chip) VH: DVQLVESGGDLVKPGGSLRLTCVASGLSLTSASMSWVRQAPGKGLQWVSTIYSNRGTYYTDSVKGRFTISKDNAENTLYLQMNNLKTEDTATYYCASIYYYEAEYLHWYFDFWGQGALVTVSS VL: EIQMTQSPTSLSASVGDRVTITCRASEGISKNLSWYQQTPGKAPKLLIYATDNLHSGVPSRFSGSGSGTDFTLTISSLQPEDFATYYCQQGWKWPLTFGGGTKLEIT	5.48e-05
SC-184_102 (antibody, IgG1a, V domains shown, also called SC-102) VH: DVQLVESGGDLVKPGGSLRLTCVASGLSLTSNSMSWVRQAPGKGLQWVSTIWSNGGTYYTDSVKGRFTISKDNAENTLYLQMNNLKTEDTATYYCASIYYYEAEYLHWYFDFWGQGALVTVSS VL: EIQMTQSPTSLSASVGDRVTITCRASKGISNNLSWYQQTPGKAPKLLIYAQSNLHSGVPSRFSGSGSGTDFTLTISSLQPEDFATYYCQQGYKWPLTFGGGTKLEIT	0.000198
SC-184_76-Arg (antibody, V domains shown, SC-184_76 containing the G55R mutation in VH; feline antibody captured on an anti-feline chip) VH: DVQLVESGGDLVKPGGSLRLTCVASGLSLTSDSMSWVRQAPGKGLQWVSTLWSNRGTYYTDSVKGRFTISKDNAENTLYLQMNNLKTEDTATYYCASIYYYEADYLHWYFDFWGQGALVTVSS VL: EIQMTQSPTSLSASVGDRVTITCRASEGIANNLSWYQQTPGKAPKLLIYATSNLHSGVPSRFSGSGSGTDFTLTISSLQPEDFATYYCQQGFKWPLTFGGGTKLEIT	9.01e-05

Entry under test: SC-184_110 (antibody, IgG1a, V domains shown, also called SC-110) VH: DVQLVESGGDLVKPGGSLRLTCVASGLSLTSASMSWVRQAPGKGLQWVSTIYSNGGTYYTDSVKGRFTISKDNAENTLYLQMNNLKTEDTATYYCASIYYYEAEYLHWYFDFWGQGALVTVSS VL: EIQMTQSPTSLSASVGDRVTITCRASEGISKNLSWYQQTPGKAPKLLIYATDNLHSGVPSRFSGSGSGTDFTLTISSLQPEDFATYYCQQGWKWPLTFGGGTKLEIT . Its koff was 0.00038

Entry under test: SC-184_76 (antibody, IgG1a, V domains shown) VH: DVQLVESGGDLVKPGGSLRLTCVASGLSLTSDSMSWVRQAPGKGLQWVSTLWSNGGTYYTDSVKGRFTISKDNAENTLYLQMNNLKTEDTATYYCASIYYYEADYLHWYFDFWGQGALVTVSS VL: EIQMTQSPTSLSASVGDRVTITCRASEGIANNLSWYQQTPGKAPKLLIYATSNLHSGVPSRFSGSGSGTDFTLTISSLQPEDFATYYCQQGFKWPLTFGGGTKLEIT . Its koff was 0.000396

Entry under test: AHF17602 (antibody, V domains shown, also called AIF17602) VH: DVQLVESGGDLVKPGGSLRLTCVASGLSLTSSSMVWVRQAPGKGLQWVSTIYSNRGTYYTDSVKGRFTISKDNAENTLYLQMNNLKTEDTATYYCASIYYYDADYLHWYFDFWGQGALVTVSS VL: EIQMTQSPTSLSASVGDRVTITCRASEGIANNLSWYQQTPGKAPKLLIYATSNLHSGVPSRFSGSGSGTDFTLTISSLQPEDFATYYCQQGYKWPLTFGGGTKLEIT . Its koff was 6.32e-05
